test system: SNB-75 CNS; test: NCI tumour cell line growth inhibition, 48 h
quantity: TGI (µM)
Express it in µM; write the number only.

Example cases with answers are listed next.
Req: Quick check: TGI of Cn1c2ccccc2c2ncc3[nH]c4ccccc4c3c21 ?
Resp: 35.6

Req: Item: O=C1CCC(=O)c2c1c(O)c1ccncc1c2O
Resp: 34.7

Req: Entry CNCCCn1c2ccccc2c2c3c(c(-c4ccsc4)cc21)C(=O)NC3=O please
Resp: 3.43

New cases:
Req: What measured TGI goes with O=C(Nc1ccc(Cl)c(C(F)(F)F)c1)c1ccc(NC2=C(Cl)C(=O)N(Cc3ccccc3)C2=O)cc1 ?
Resp: 33.9

====

tested on: OVCAR-5 ovarian; assay: NCI tumour cell line growth inhibition, 48 h; in the data active = GI50 below about 0.43 µM; inactive = the rest
Outcomes you can answer with include only these: active, inactive

Req: So what was the verdict on Cn1c(=O)c(Oc2ccc(F)cc2)cc2cnc(NC3CCOCC3)nc21 in this test?
Resp: inactive

Req: Now give it for O=[N+]([O-])c1cccc2ccc(N/N=C/c3ccccc3O)nc12 too.
Resp: inactive

Req: Then what about the compound O=C(NNc1ccccc1)C(=O)NNc1ccccc1 ?
Resp: inactive

Req: Cool, now NCCCn1c2c(c3ccc([N+](=O)[O-])cc3c1=O)C(=O)c1ccccc1-2
Resp: active

Req: Request: COC(=O)c1cc2c(s1)-c1nccc3c1c(nc1ccccc13)C2=O
Resp: inactive

New cases:
Req: In this assay, the call recorded for Cn1c(Nc2ccc(C(F)(F)F)cc2)nc2cc(Oc3ccnc(-c4ncc(C(F)(F)F)[nH]4)c3)ccc21 was what?
Resp: inactive

Req: Now the same for CCOC(=O)/C=C/c1ccc(C#Cc2ccccc2)cc1
Resp: inactive

Req: Ok, now COc1ccc(-c2nsc3c2NC(=O)CC3c2cccc(OC)c2)cc1 (stereo unspecified)
Resp: inactive

====

system: NCI-H522 lung; assay: NCI tumour cell line growth inhibition, 48 h; in the data active = GI50 below about 0.43 µM; inactive = the rest
Select the correct class. Options are active, inactive and nothing else.

Worked examples follow.
Req: Tell me the assay call for CC(C(=O)O)c1cccc(Oc2ccccc2)c1 (stereo not given) please.
Resp: inactive

Req: Moving on to O=C1c2cccc3cccc(c23)C(=O)N1CCCCCN1CCN(CCCCCOc2ccc(-c3nc4ccc(N5CCOCC5)cc4[nH]3)cc2)CC1
Resp: inactive

Req: Moving on to the next compound: CC1(Br)Cc2ccccc2C1=O (stereo not given)
Resp: active

New cases:
Req: Please share the test call associated with BrCc1cccc(C[P+](c2ccccc2)(c2ccccc2)c2ccccc2)c1 .
Resp: inactive

Req: Same read-out for O=C(NNc1ccccc1)C(=O)NNc1ccccc1 ?
Resp: inactive

Req: Also, NCCCn1c2c(c3ccc([N+](=O)[O-])cc3c1=O)C(=O)c1ccccc1-2 please.
Resp: inactive

Req: What do you get for CN1CC[C@@H](c2c(O)cc(O)c3c(=O)cc(-c4ccc(C(F)(F)F)cc4Cl)oc23)[C@@H]1CO ?
Resp: inactive

Req: Would you mind doing Cn1c(Nc2ccc(C(F)(F)F)cc2)nc2cc(Oc3ccnc(-c4ncc(C(F)(F)F)[nH]4)c3)ccc21 as well?
Resp: active

Req: CCN(Cc1ccc(F)cc1)c1ccc(CO)c(Br)c1 , same question.
Resp: inactive

Req: For CSc1ccccc1C#C/C=C\C#Cc1ccccc1N then?
Resp: inactive
